- System Name: Ron(h) (Homo sapiens)
- Assay Info: Kinase Profiling Assay
- Type: biochemical
- Stated Conditions: 100 μM
Endpoint Name: % activity

// known answers, use as guide
residue_sequence="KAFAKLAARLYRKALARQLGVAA [MMI-0400]" endpoint_name="% activity" readout_value=79%
residue_sequence="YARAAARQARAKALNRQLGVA [MMI-0200]" endpoint_name="% activity" readout_value=120%
residue_sequence="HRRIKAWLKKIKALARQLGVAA [MMI-0500]" endpoint_name="% activity" readout_value=46%

Now look at this entry.
Supply measured % activity of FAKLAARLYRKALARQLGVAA [MMI-0300] in your reply.
93%
